B1: library; a variant is named by its letters at N, in order (parent)
chain: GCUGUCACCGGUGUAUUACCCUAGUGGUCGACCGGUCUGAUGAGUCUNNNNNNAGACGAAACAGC

variants of: B1; assay: normalized RNA/DNA level with ligand (relative to sTRSVctl = 100) (log10 (% of sTRSVctl)); ligand: hypoxanthine (xanthine aptamer); higher = less ribozyme self-cleavage, higher mRNA level; settings: ligand concentration (+) RNA-Seq: 5 mM, HEK293T, reporter: mCherry (pCS4076), ligand present: yes
property: normalized RNA/DNA level with ligand (log10)

GCUGUCACCGGUGUAUUACCCUAGUGGUCGACCGGUCUGAUGAGUCUCCUGCUAGACGAAACAGC [CCUGCU]    2.02
GCUGUCACCGGUGUAUUACCCUAGUGGUCGACCGGUCUGAUGAGUCUCAUACCAGACGAAACAGC [CAUACC]    1.93
GCUGUCACCGGUGUAUUACCCUAGUGGUCGACCGGUCUGAUGAGUCUCCGUUCAGACGAAACAGC [CCGUUC]    1.96
GCUGUCACCGGUGUAUUACCCUAGUGGUCGACCGGUCUGAUGAGUCUUAGACAAGACGAAACAGC [UAGACA]    1.9
GCUGUCACCGGUGUAUUACCCUAGUGGUCGACCGGUCUGAUGAGUCUGCAUCUAGACGAAACAGC [GCAUCU]    1.98
GCUGUCACCGGUGUAUUACCCUAGUGGUCGACCGGUCUGAUGAGUCUCAGAGCAGACGAAACAGC [CAGAGC]    1.93
GCUGUCACCGGUGUAUUACCCUAGUGGUCGACCGGUCUGAUGAGUCUUAUAUCAGACGAAACAGC [UAUAUC]    1.94
GCUGUCACCGGUGUAUUACCCUAGUGGUCGACCGGUCUGAUGAGUCUGCCAGUAGACGAAACAGC [GCCAGU]    1.92
GCUGUCACCGGUGUAUUACCCUAGUGGUCGACCGGUCUGAUGAGUCUCACGUGAGACGAAACAGC [CACGUG]    1.92
GCUGUCACCGGUGUAUUACCCUAGUGGUCGACCGGUCUGAUGAGUCUGGAUUGAGACGAAACAGC [GGAUUG]    1.86
GCUGUCACCGGUGUAUUACCCUAGUGGUCGACCGGUCUGAUGAGUCUCAUUCUAGACGAAACAGC [CAUUCU]    1.91
GCUGUCACCGGUGUAUUACCCUAGUGGUCGACCGGUCUGAUGAGUCUACACUAAGACGAAACAGC [ACACUA]    1.94
GCUGUCACCGGUGUAUUACCCUAGUGGUCGACCGGUCUGAUGAGUCUAAAAUGAGACGAAACAGC [AAAAUG]    1.86
GCUGUCACCGGUGUAUUACCCUAGUGGUCGACCGGUCUGAUGAGUCUAAUUCUAGACGAAACAGC [AAUUCU]    1.98
GCUGUCACCGGUGUAUUACCCUAGUGGUCGACCGGUCUGAUGAGUCUCGGUCCAGACGAAACAGC [CGGUCC]    2
